Reference source: the supplement of paper PMC10724198

Tested on: Saccharomyces cerevisiae
Experiment: protein stability index of tFT-peptide fusion (C-terminal peptide) (PSI (0-1 scale)); higher = more stable (slower turnover)
Details: genetic background: das1 deletion; temperature: 30 C
So basically: protein stability index at 0.4 or higher? That is class 1. Lower than 0.4? That is class 0.

Q: Assess whether reported protein stability index for "FLVLFYCTFWVR" sits at 0.4 or higher.
Result: class 0

Q: Assess whether reported protein stability index for "RGWGGGTWVKMG" sits at 0.4 or higher.
Result: class 1

Q: Assess whether reported protein stability index for "MALAVRVVYCGA" sits at 0.4 or higher.
Result: class 0

Q: Assess whether reported protein stability index for "RRPVHTHTSVSP" sits at 0.4 or higher.
Result: class 1

Q: Assess whether reported protein stability index for "WFWVAVGVVGGG" sits at 0.4 or higher.
Result: class 0

Q: Assess whether reported protein stability index for "VFLVRTVTQISA" sits at 0.4 or higher.
Result: class 0

Q: Assess whether reported protein stability index for "SLGHIGFWRFAG" sits at 0.4 or higher.
Result: class 1

Q: Assess whether reported protein stability index for "LCIRHFRLLELL" sits at 0.4 or higher.
Result: class 1

Q: Assess whether reported protein stability index for "CFCPILFPRCLA" sits at 0.4 or higher.
Result: class 1

Q: Assess whether reported protein stability index for "WVVWWFACVFGV" sits at 0.4 or higher.
Result: class 0

Q: Assess whether reported protein stability index for "PRINTFVVVRVC" sits at 0.4 or higher.
Result: class 0

----------
System: Saccharomyces cerevisiae
Assay: protein stability index of tFT-peptide fusion (C-terminal peptide) (PSI (0-1 scale)); higher = more stable (slower turnover)
Settings: genetic background: das1 deletion; temperature: 37 C
So basically: protein stability index at 0.6 or higher? That is Satisfied. Lower than 0.6? That is Not satisfied.

Q: Assess whether reported protein stability index for "WFWVAVGVVGGG" sits at 0.6 or higher.
Result: Not satisfied

Q: Assess whether reported protein stability index for "FFALYGHILGLF" sits at 0.6 or higher.
Result: Satisfied

Q: Assess whether reported protein stability index for "VLYLQCITSAGH" sits at 0.6 or higher.
Result: Not satisfied

Q: Assess whether reported protein stability index for "QRTNTIINKRIV" sits at 0.6 or higher.
Result: Satisfied

Q: Assess whether reported protein stability index for "VVIWWFSAVVSV" sits at 0.6 or higher.
Result: Not satisfied

Q: Assess whether reported protein stability index for "SRDSLLTLIPSC" sits at 0.6 or higher.
Result: Satisfied

Q: Assess whether reported protein stability index for "CALFLLSSPSPT" sits at 0.6 or higher.
Result: Satisfied

Q: Assess whether reported protein stability index for "LFVFVISSSSFP" sits at 0.6 or higher.
Result: Not satisfied

Q: Assess whether reported protein stability index for "VQWPLLVVGCMG" sits at 0.6 or higher.
Result: Not satisfied

Q: Assess whether reported protein stability index for "VIYNSALLLVRL" sits at 0.6 or higher.
Result: Not satisfied

Q: Assess whether reported protein stability index for "FFFPFLCIAVSL" sits at 0.6 or higher.
Result: Not satisfied

Q: Assess whether reported protein stability index for "FEVLINIWFLSA" sits at 0.6 or higher.
Result: Not satisfied

Q: Assess whether reported protein stability index for "CLLGMKSRTILV" sits at 0.6 or higher.
Result: Not satisfied

Q: Assess whether reported protein stability index for "SPLHGFLFLVLL" sits at 0.6 or higher.
Result: Not satisfied

----------
Tested on: Saccharomyces cerevisiae
Assay: protein stability index of tFT-peptide fusion (C-terminal peptide) (PSI (0-1 scale)); higher = more stable (slower turnover)
Details: genetic background: wild type; temperature: 30 C
Can you tell me protein stability index for the items I'm about to list?

Q: Can you share its protein stability index? I mean this sequence: NTLRISTVGQEF [PYK2 C-terminal 12 aa]
Result: 0.707

Q: Can you share its protein stability index? I mean this sequence: CGGRPQYGVMFA [YDR249C C-terminal 12 aa]
Result: 0.702

Q: Can you share its protein stability index? I mean this sequence: SQLPSLYAPSYY [SSU72 C-terminal 12 aa]
Result: 0.726

Q: Can you share its protein stability index? I mean this sequence: AFKRKKQELGVN [QDR2 C-terminal 12 aa]
Result: 0.697

Q: Can you share its protein stability index? I mean this sequence: NIGDFSPDLMDS [MSS11 C-terminal 12 aa]
Result: 0.713

Q: Can you share its protein stability index? I mean this sequence: ETMVRIRVDGNE [DAD2 C-terminal 12 aa]
Result: 0.676

Q: Can you share its protein stability index? I mean this sequence: VVEKVSSITNRN [SRF1 C-terminal 12 aa]
Result: 0.669

Q: Can you share its protein stability index? I mean this sequence: KVLACYEEIDDY [UBC11 C-terminal 12 aa]
Result: 0.712

Q: Can you share its protein stability index? I mean this sequence: VFQRAIEKALGE [STR2 C-terminal 12 aa]
Result: 0.716

----------
System: Saccharomyces cerevisiae
Test: protein stability index of tFT-peptide fusion (C-terminal peptide) (PSI (0-1 scale)); higher = more stable (slower turnover)
Conditions: genetic background: das1 deletion; temperature: 30 C
So basically: protein stability index at 0.4 or higher? That is MET. Lower than 0.4? That is NOT MET.

Q: Assess whether reported protein stability index for "FCFFSMGFVLAL" sits at 0.4 or higher.
Result: NOT MET

Q: Assess whether reported protein stability index for "LLILSLLVLSSR" sits at 0.4 or higher.
Result: NOT MET

Q: Assess whether reported protein stability index for "PPPPPLAIPHPT" sits at 0.4 or higher.
Result: MET

Q: Assess whether reported protein stability index for "YSRFALRPQLLV" sits at 0.4 or higher.
Result: MET

Q: Assess whether reported protein stability index for "AEIVCLTDGLLF" sits at 0.4 or higher.
Result: MET

Q: Assess whether reported protein stability index for "LFMRGEDEMFSV" sits at 0.4 or higher.
Result: MET

Q: Assess whether reported protein stability index for "WIVQCCLYVPVQ" sits at 0.4 or higher.
Result: NOT MET

Q: Assess whether reported protein stability index for "FRCFVLPYFGRF" sits at 0.4 or higher.
Result: MET

Q: Assess whether reported protein stability index for "KEKKKTKHNKIG" sits at 0.4 or higher.
Result: MET

Q: Assess whether reported protein stability index for "HVSVIRRGICCA" sits at 0.4 or higher.
Result: NOT MET

Q: Assess whether reported protein stability index for "FGCLFILRCSFL" sits at 0.4 or higher.
Result: NOT MET

Q: Assess whether reported protein stability index for "VFFLFAVCSVLV" sits at 0.4 or higher.
Result: NOT MET

Q: Assess whether reported protein stability index for "SSLLPLLAQLVG" sits at 0.4 or higher.
Result: MET

Q: Assess whether reported protein stability index for "FNMLFVVRLLYM" sits at 0.4 or higher.
Result: NOT MET

Q: Assess whether reported protein stability index for "AFFLLVSLLVSP" sits at 0.4 or higher.
Result: NOT MET

Q: Assess whether reported protein stability index for "LSLSPRLPRLVA" sits at 0.4 or higher.
Result: MET

Q: Assess whether reported protein stability index for "FLAPPFLPPPPA" sits at 0.4 or higher.
Result: MET

Q: Assess whether reported protein stability index for "HCNRLIFWYKCT" sits at 0.4 or higher.
Result: MET

Q: Assess whether reported protein stability index for "SWWGDVVWFVVC" sits at 0.4 or higher.
Result: MET

Q: Assess whether reported protein stability index for "WRLRIAAVVRSS" sits at 0.4 or higher.
Result: MET

Q: Assess whether reported protein stability index for "LLVSVVFVSRFF" sits at 0.4 or higher.
Result: NOT MET

Q: Assess whether reported protein stability index for "RLCKGQKYTKIN" sits at 0.4 or higher.
Result: MET

Q: Assess whether reported protein stability index for "GLFCCFLCLSVF" sits at 0.4 or higher.
Result: NOT MET

Q: Assess whether reported protein stability index for "VVFFFKFFLLRL" sits at 0.4 or higher.
Result: NOT MET

----------
System: Saccharomyces cerevisiae
Assay: protein stability index of tFT-peptide fusion (C-terminal peptide) (PSI (0-1 scale)); higher = more stable (slower turnover)
Details: genetic background: wild type; temperature: 30 C
Can you tell me protein stability index for the items I'm about to list?

Q: Can you share its protein stability index? I mean this sequence: "SSPYPGNVVTST"
Result: 0.713

Q: Can you share its protein stability index? I mean this sequence: "PRTLTPVCPAPH"
Result: 0.702

Q: Can you share its protein stability index? I mean this sequence: "AKKTKSRANSDL"
Result: 0.701

Q: Can you share its protein stability index? I mean this sequence: "NPTPPNLRSNLF"
Result: 0.688

Q: Can you share its protein stability index? I mean this sequence: "FSGLFAFGRVVV"
Result: 0.687
